Source: PubChem BioAssay (NCI)

Test system: A549 NSCLC
Experiment: NCI tumour cell line growth inhibition, 48 h
The entries below come with measured TGI values attached.
Measure Name: TGI

Compound | Data Value
CC[O-].CC[O-].O=C([CH-]C(=O)c1ccccc1)c1ccccc1.O=C([CH-]C(=O)c1ccccc1)c1ccccc1.[Ti+4] | > 100 µM
CC(C)c1cccc(C(C)C)c1NC1=CC(=O)C(=O)c2ccccc21 | > 100 µM
NC(=O)CCC(NC(=O)C(F)(F)F)C(=O)O (stereo not given) | > 100 µM
CCOc1ccc(NC(=O)CCC(=O)NN)cc1 | > 100 µM
CCOC(=O)[C@H]1C[C@]23CN(C(=O)OC(C)(C)C)CC[C@H]2CCC2(SCCCS2)[C@@H]3N1C | > 100 µM

====

# TGI per record follows
Tested on: CAKI-1 renal
Experiment: NCI tumour cell line growth inhibition, 48 h
Measure Name: TGI

Compound | Data Value
CCOC(=O)C1CC/C(=C(/C#N)C(=O)OC)N1 (configuration not stated) | > 100 µM
COc1ccc(-n2c(=O)n(C)c(=O)n2-c2c(C)c(C)c(C)c(C)c2C)cc1 | > 100 µM
Nc1ccc(C(=O)NN2C(=O)C(Cl)C2c2cccc([N+](=O)[O-])c2)cc1 (configuration not stated) | 36 µM
COC(=O)CNC(=O)Nc1cc(N2C(=O)ON3C2C(C)(C)N(O)C3(C)C)ccc1C (configuration not stated) | > 100 µM
O=c1cc(-c2ccccc2Cl)[nH]c2cc3c(cc12)OCO3 | 39.9 µM
C=C=[CH][Sn]([c]1ccccc1)([c]1ccccc1)[c]1ccccc1 | 4.29 µM
CCOC(=O)N1CCC(=O)C[C@@H]1C/C=C/P1(=O)O[C@H](c2ccccc2)C(C)N1C(C)C (some centres not stated) | > 100 µM
CCOc1ccc(NC(=O)CCC(=O)NN)cc1 | > 100 µM
Cc1c(N2C(=O)/C(=C\c3ccc(N(C)C)cc3)N=C2c2ccccc2)c(=O)n(-c2ccccc2)n1C | > 100 µM
CCOC(=O)[C@H]1C[C@]23CN(C(=O)OC(C)(C)C)CC[C@H]2CCC2(SCCCS2)[C@@H]3N1C | > 100 µM
c1ccc2nc3cc4c(cc3nc2c1)NC12CCCCC1CC1=C(CCCC1)N42 (configuration not stated) | > 10 µM
CCCCCCCCCC(=O)CC(=O)c1c(O)cc(O)cc1O | > 75 µM
Cn1c2c(cc(-c3ccccc3)c1=O)COc1ccccc1-2 | > 100 µM
N#C/C(=C\c1ccc(O)cc1O)C(N)=O | > 100 µM
CCCCCn1cnc2c1S(=O)(=O)N(C)C(NC(=O)c1ccccc1)=N2 | > 100 µM
FC(F)(F)C1(C(F)(F)F)C2CCC3(CC(F)(F)C(F)(F)S3)C1C2 (configuration not stated) | > 100 µM
O=C(NNC(=O)c1ccccc1Cl)c1ccccc1O | > 100 µM
CC(C)Cc1cccc(C(C)C)c1NC(=O)CCC(=O)N/N=C1\C(=N/NC(=O)CCC(=O)Nc2c(C(C)C)cccc2C(C)C)C(c2ccc3c(c2)OCO3)Oc2ccccc21 (configuration not stated) | > 100 µM
CC(=O)NNc1nc(C)c(C(/C=C/c2ccc(NC(C)=O)cc2)=N/NS(=O)(=O)c2ccc(C)cc2)s1 | > 100 µM
CCS/C(Nc1ccccc1)=C(\C#N)C(=O)N/N=C/c1ccc(Cl)cc1Cl | > 100 µM
CCN1C(=O)N(CC)C2C1NN=c1s/c(=C\c3ccccc3)c(=O)n12 (configuration not stated) | > 100 µM
CC(C)(C)C[P+](C)(C)c1ccccc1 | > 100 µM
O=C(/C=C/c1ccc(F)c(F)c1)OCCc1ccccc1 | > 100 µM
COC(=O)c1cc(C)n(NC(=O)OC(C)(C)C)c1C | > 100 µM
CN1CCN(c2ccc3nc4c(nc3c2C(F)(F)F)C(=O)c2ncccc2C4=O)CC1 | 2.75 µM
COC(=O)C(=O)C1CCCCC(C2=NC3NN=C(N)N3C2=O)C1=O (configuration not stated) | > 100 µM
CC(C)(C)c1cc(C(C)(C)C)c2sc(=S)oc2c1O | 18.6 µM

====

Each record here notes measured TGI.
System: LOX IMVI melanoma
Experiment: NCI tumour cell line growth inhibition, 48 h

Molecule | TGI
CN(CC#N)C(=O)Cc1ccc([N+](=O)[O-])cc1 | > 10 µM
CCOC(=O)C(Cc1cn(S(=O)(=O)c2ccc(C)cc2)cn1)P(=O)(OCC)OCC (stereo not drawn) | > 100 µM
CC(C)CNc1nc(N=[N+]=[N-])nc(NCC(C)C)n1 | > 10 µM

====

System: HL-60(TB) leukemia
Experiment: NCI tumour cell line growth inhibition, 48 h
Measure Name: TGI (µM)

Molecule | Measured Target | Result Qualifier | Data Value
COc1ccc(C2C3=C(COC3=O)N(CCO)c3cc4c(cc32)OCCO4)cc1OC (stereo not given) | HL-60(TB) leukemia | = | 5.65
Cn1c2c(cc(-c3ccccc3)c1=O)COc1ccccc1-2 | HL-60(TB) leukemia | = | 56.1
O=C1C2Nc3ccccc3SC2C(=O)N1c1cccc([N+](=O)[O-])c1 (stereo not given) | HL-60(TB) leukemia | > | 100
CC(C)(C)C(=O)[CH-]C(=O)C(F)(F)C(F)(F)C(F)(F)F.CC(C)(C)C(=O)[CH-]C(=O)C(F)(F)C(F)(F)C(F)(F)F.[O-]CC1OC(O)C(O)C(O)C1O.[O-]CC1OC(O)C(O)C(O)C1O.[Ti+4] | HL-60(TB) leukemia | > | 100
O=C1/C(=C\c2c(-c3ccccc3)nn(-c3ccccc3)c2O)C(c2ccccc2)=NN1c1ccccc1 | HL-60(TB) leukemia | > | 100
OC(c1ccccc1)c1c(-c2ccccc2)oc(-c2ccccc2)c1C(O)c1ccccc1 (stereo not given) | HL-60(TB) leukemia | = | 6.13
CCC[CH2][Sn]1([CH2]CCC)[O]C(=O)c2cc(C)ccc2[O]1 | HL-60(TB) leukemia | = | 0.444
COC(=O)c1cc(C)n(NC(=O)OC(C)(C)C)c1C | HL-60(TB) leukemia | > | 100
Cc1cc2c(=O)[nH]nc(N)c2c(N)n1 | HL-60(TB) leukemia | > | 100
O=C(/C=C/c1cccc(B(O)O)c1)c1cccc(B(O)O)c1 | HL-60(TB) leukemia | = | 6.33
Nc1cnc2c(c1)c(=O)nc1n2CCS1 | HL-60(TB) leukemia | > | 100
C[N+]1=c2c3cccc4cccc(c(=O)n2CCC1)c43 | HL-60(TB) leukemia | = | 25.3
C[C@@H](Oc1cc(-c2cnn(C3CC4(CCCNC4)C3)c2)cnc1N)c1c(Cl)ccc(F)c1Cl (stereo not given in full) | HL-60(TB) leukemia | = | 3.01
CO[C@]12C[C@H](CNC(=O)c3cc(Br)c(Br)[nH]3)O[C@H]1NC(=O)N2 | HL-60(TB) leukemia | > | 100
O=c1cc(-c2ccccc2Cl)[nH]c2cc3c(cc12)OCO3 | HL-60(TB) leukemia | = | 0.0511

====

Tested on: TK-10 renal
Experiment: NCI tumour cell line growth inhibition, 48 h
The following compounds are listed with their measured TGI values.

Compound | TGI
O=c1[nH]c2c(O)cccc2c2cc3c(c(O)c12)OCO3 | > 100 µM
CCS/C(Nc1ccccc1)=C(\C#N)C(=O)N/N=C/c1ccc(Cl)cc1Cl | > 100 µM
CS(=O)(=O)OCc1c(O)c2c(c(O)c1COS(C)(=O)=O)C(=O)C=CC2=O | > 100 µM
Cc1cc(C)c2[s+]snc2c1 | > 100 µM
NNC(=S)N/N=C/C(Cl)=C(\Cl)C(=O)O | > 100 µM
Cc1cc(=O)[nH]c2c3c(ccc12)OC(C)(C)C=C3 | > 100 µM
O=C(CCO)OCCCCCC/C=C\CCCCCC/C=C\CCCCCCCCOC(=O)CCO | 31.5 µM
C=C1CC(C/C=C(\C)CC2CC(=C)C(=O)O2)OC1=O (stereo not drawn) | > 100 µM
C[C@]12CCCC(=O)C1C[C@H](C(=O)O)CC2 (stereo partly drawn) | > 100 µM
CC(C)(C)C[P+](C)(C)c1ccccc1 | > 100 µM
COc1ccc2[nH]c3c(C)c4cnccc4c(C)c3c2c1 | > 10 µM
CCCC(=O)OCC(O)CO (stereo not drawn) | > 5000 µM
COc1cccc2c1C(=O)c1c(O)c3c(c(O)c1C2=O)C[C@@](O)(/C(C)=N/NC(=O)c1ccc(Cl)c(Cl)c1)C[C@@H]3OC1CC(N)C(O)C(C)O1 (stereo partly drawn) | 1.83 µM
CCOC(=O)c1c(C(F)(F)F)oc2c1ccc1nc3nonc3nc12 | 36.4 µM
OC1C2C=CCC1CCC2 (stereo not drawn) | > 100 µM
C[C@H](O)C(=O)SC[C@H](NC(=O)CC[C@@H](N)C(=O)O)C(=O)NCC(=O)O | > 100 µM
Cn1c(N)c(-c2c3ccccc3nc3ccccc23)c(=O)n(C)c1=O | > 100 µM
N#CC[C@H](C1CCCC1)n1cc(-c2ncnc3[nH]ccc23)cn1 | > 100 µM
